study_target: A1 human adenosine receptor (A1R) (Homo sapiens)
Construct: expressed in transfected cells; host or cells: CHO
Sequence (P30542 1-326): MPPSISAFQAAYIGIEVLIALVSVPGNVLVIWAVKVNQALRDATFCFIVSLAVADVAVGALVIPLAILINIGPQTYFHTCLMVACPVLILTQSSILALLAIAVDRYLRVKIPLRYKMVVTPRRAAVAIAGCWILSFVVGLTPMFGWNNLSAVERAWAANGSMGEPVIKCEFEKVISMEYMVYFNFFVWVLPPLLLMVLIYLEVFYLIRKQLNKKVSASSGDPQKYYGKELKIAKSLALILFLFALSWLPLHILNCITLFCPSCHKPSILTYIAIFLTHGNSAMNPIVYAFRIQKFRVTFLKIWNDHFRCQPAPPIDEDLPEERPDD
experiment: Radioligand binding competition assay, human A1 receptor in transfected CHO cells
condition_summary: 0.1 µM compound; read-out: % displacement at 0.1 μM (A1R)
Items are presented alongside their recorded inhibition at 0.1 µM.
experimental_endpoint: inhibition at 0.1 µM (%)

[
  {
    "substance_smiles": "N#Cc1c(C2CCCCC2)cc(-c2cccs2)nc1N",
    "experimental_endpoint": "inhibition at 0.1 µM",
    "value_unit": "%",
    "numeric_result": 16
  },
  {
    "substance_smiles": "COc1ccccc1-c1cc(-c2ccccc2F)nc(N)c1C#N",
    "experimental_endpoint": "inhibition at 0.1 µM",
    "value_unit": "%",
    "numeric_result": 58
  },
  {
    "substance_smiles": "COc1ccc(-c2cc(-c3ccccc3C)nc(N)c2C#N)cc1",
    "experimental_endpoint": "inhibition at 0.1 µM",
    "value_unit": "%",
    "numeric_result": 6
  },
  {
    "substance_smiles": "N#Cc1c(-c2ccc(O)cc2)cc(-c2ccc(O)cc2)nc1N",
    "experimental_endpoint": "inhibition at 0.1 µM",
    "value_unit": "%",
    "numeric_result": 19
  },
  {
    "substance_smiles": "COc1ccccc1-c1cc(-c2ccc(O)cc2)nc(N)c1C#N",
    "experimental_endpoint": "inhibition at 0.1 µM",
    "value_unit": "%",
    "numeric_result": 8
  },
  {
    "substance_smiles": "COc1ccccc1-c1cc(-c2ccccc2)nc(N)c1C#N",
    "experimental_endpoint": "inhibition at 0.1 µM",
    "value_unit": "%",
    "numeric_result": 53
  },
  {
    "substance_smiles": "COc1ccccc1-c1cc(-c2ccccc2C)nc(N)c1C#N",
    "experimental_endpoint": "inhibition at 0.1 µM",
    "value_unit": "%",
    "numeric_result": 12
  },
  {
    "substance_smiles": "Cc1ccccc1-c1cc(C2CCCCC2)c(C#N)c(N)n1",
    "experimental_endpoint": "inhibition at 0.1 µM",
    "value_unit": "%",
    "numeric_result": 17
  },
  {
    "substance_smiles": "Cn1cccc1-c1cc(-c2ccccc2)c(C#N)c(N)n1",
    "experimental_endpoint": "inhibition at 0.1 µM",
    "value_unit": "%",
    "numeric_result": 26
  },
  {
    "substance_smiles": "N#Cc1c(C2CCCCC2)cc(-c2ccsc2)nc1N",
    "experimental_endpoint": "inhibition at 0.1 µM",
    "value_unit": "%",
    "numeric_result": 44
  },
  {
    "substance_smiles": "N#Cc1c(-c2ccccc2Cl)cc(-c2ccc(O)cc2)nc1N",
    "experimental_endpoint": "inhibition at 0.1 µM",
    "value_unit": "%",
    "numeric_result": 2
  },
  {
    "substance_smiles": "COc1ccccc1-c1cc(-c2ccco2)nc(N)c1C#N",
    "experimental_endpoint": "inhibition at 0.1 µM",
    "value_unit": "%",
    "numeric_result": 38
  },
  {
    "substance_smiles": "N#Cc1c(-c2ccccc2)cc(-c2nccs2)nc1N",
    "experimental_endpoint": "inhibition at 0.1 µM",
    "value_unit": "%",
    "numeric_result": 12
  },
  {
    "substance_smiles": "N#Cc1c(-c2ccco2)cc(-c2ccsc2)nc1N",
    "experimental_endpoint": "inhibition at 0.1 µM",
    "value_unit": "%",
    "numeric_result": 15
  },
  {
    "substance_smiles": "COc1ccc(-c2cc(-c3ccc(O)cc3)nc(N)c2C#N)cc1",
    "experimental_endpoint": "inhibition at 0.1 µM",
    "value_unit": "%",
    "numeric_result": 46
  },
  {
    "substance_smiles": "COc1ccc(-c2cc(-c3ccccc3)nc(N)c2C#N)c(OC)c1",
    "experimental_endpoint": "inhibition at 0.1 µM",
    "value_unit": "%",
    "numeric_result": 12
  }
]

###

Recorded % displacement at 0.1 μM (A2AR), one value per entry.
study_target: A2A human adenosine receptor (A2AR) (Homo sapiens, UniProt P29274)
Construct: expressed in transfected cells; host or cells: HeLa
Sequence (P29274 whole entry): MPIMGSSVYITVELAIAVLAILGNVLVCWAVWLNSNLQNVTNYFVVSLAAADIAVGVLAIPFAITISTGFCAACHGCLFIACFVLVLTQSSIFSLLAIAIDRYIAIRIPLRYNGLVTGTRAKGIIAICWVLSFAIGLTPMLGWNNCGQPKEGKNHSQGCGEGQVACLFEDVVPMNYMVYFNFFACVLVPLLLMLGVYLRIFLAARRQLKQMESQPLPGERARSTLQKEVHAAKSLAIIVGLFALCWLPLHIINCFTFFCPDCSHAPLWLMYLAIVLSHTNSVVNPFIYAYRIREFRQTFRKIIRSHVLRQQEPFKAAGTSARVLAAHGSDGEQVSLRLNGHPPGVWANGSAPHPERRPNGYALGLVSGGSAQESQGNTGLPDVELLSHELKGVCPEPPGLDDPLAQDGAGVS
experiment: Radioligand binding competition assay, human A2A receptor in transfected HeLa cells
condition_summary: 0.1 µM compound

[
  {
    "substance_smiles": "N#Cc1c(-c2ccc(O)cc2)cc(-c2ccc(O)cc2)nc1N",
    "% displacement at 0.1 μM (A2AR) (%)": 7
  },
  {
    "substance_smiles": "Cn1cccc1-c1cc(-c2ccccc2)c(C#N)c(N)n1",
    "% displacement at 0.1 μM (A2AR) (%)": 32
  },
  {
    "substance_smiles": "N#Cc1c(C2CCCCC2)cc(-c2cccs2)nc1N",
    "% displacement at 0.1 μM (A2AR) (%)": 11
  },
  {
    "substance_smiles": "N#Cc1c(-c2ccc3c(c2)OCO3)cc(-c2ccccc2)nc1N",
    "% displacement at 0.1 μM (A2AR) (%)": 5
  },
  {
    "substance_smiles": "Cc1ccccc1-c1cc(C2CCCCC2)c(C#N)c(N)n1",
    "% displacement at 0.1 μM (A2AR) (%)": 18
  },
  {
    "substance_smiles": "N#Cc1c(C2CCCCC2)cc(-c2ccsc2)nc1N",
    "% displacement at 0.1 μM (A2AR) (%)": 60
  },
  {
    "substance_smiles": "N#Cc1c(-c2ccccc2)cc(-c2ccc(O)cc2)nc1N",
    "% displacement at 0.1 μM (A2AR) (%)": 38
  },
  {
    "substance_smiles": "COc1ccc(-c2cc(-c3ccc(O)cc3)nc(N)c2C#N)cc1",
    "% displacement at 0.1 μM (A2AR) (%)": 29
  },
  {
    "substance_smiles": "N#Cc1c(C2CCCCC2)cc(-c2ccccc2)nc1N",
    "% displacement at 0.1 μM (A2AR) (%)": 50
  },
  {
    "substance_smiles": "N#Cc1c(-c2ccccc2Cl)cc(-c2ccc(O)cc2)nc1N",
    "% displacement at 0.1 μM (A2AR) (%)": 10
  },
  {
    "substance_smiles": "N#Cc1c(-c2ccccc2)cc(-c2ccc(F)cc2)nc1N",
    "% displacement at 0.1 μM (A2AR) (%)": 32
  },
  {
    "substance_smiles": "COc1ccc(-c2cc(-c3ccccc3)nc(N)c2C#N)c(OC)c1",
    "% displacement at 0.1 μM (A2AR) (%)": 1
  },
  {
    "substance_smiles": "COc1ccccc1-c1cc(-c2ccc(O)cc2)nc(N)c1C#N",
    "% displacement at 0.1 μM (A2AR) (%)": 1
  },
  {
    "substance_smiles": "N#Cc1c(C2CCCCC2)cc(-c2ccccc2F)nc1N",
    "% displacement at 0.1 μM (A2AR) (%)": 34
  },
  {
    "substance_smiles": "COc1ccc(-c2cc(-c3ccccc3F)nc(N)c2C#N)cc1",
    "% displacement at 0.1 μM (A2AR) (%)": 30
  },
  {
    "substance_smiles": "COc1ccc(-c2cc(-c3ccccc3C)nc(N)c2C#N)cc1",
    "% displacement at 0.1 μM (A2AR) (%)": 32
  },
  {
    "substance_smiles": "COc1ccccc1-c1cc(-c2ccccc2C)nc(N)c1C#N",
    "% displacement at 0.1 μM (A2AR) (%)": 50
  },
  {
    "substance_smiles": "N#Cc1c(-c2ccccc2)cc(-c2nccs2)nc1N",
    "% displacement at 0.1 μM (A2AR) (%)": 8
  }
]

###

Overview of reported melting point across a group of compounds:

[
  {
    "substance_smiles": "N#Cc1c(C2CCCCC2)cc(-c2ccccc2F)nc1N",
    "melting point": "126 to 127 °C"
  },
  {
    "substance_smiles": "N#Cc1c(C2CCCCC2)cc(-c2ccsc2)nc1N",
    "melting point": "145 to 146 °C"
  },
  {
    "substance_smiles": "N#Cc1c(C2CCCCC2)cc(-c2ccco2)nc1N",
    "melting point": "177 to 178 °C"
  },
  {
    "substance_smiles": "Cn1cccc1-c1cc(-c2ccccc2)c(C#N)c(N)n1",
    "melting point": "152 to 153 °C"
  },
  {
    "substance_smiles": "Cc1ccccc1-c1cc(C2CCCCC2)c(C#N)c(N)n1",
    "melting point": "120 to 121 °C"
  }
]
